System: K24384-001-R-PDC complex spheroids, viability
Test: Anticancer human tumor K24384-001-R-PDC patient-derived pancreatic adenocarcinoma cell line growth inhibition [GQUAD]
Conditions: second compound 3.16 µM; first compound 0.0316 µM; active compounds read low
Mark y for viability, T/C under 80%, n if at or over.

For orientation, consider the following solved cases.
O=C(NO)c1cnc(N2CCN(S(=O)(=O)c3ccc4ccccc4c3)CC2)nc1 + Cc1cnc(CNC(=O)c2c(=O)c3ccc(N4CCCN(C)CC4)nc3n3c2sc2ccccc23)cn1	y
CC1COCCN1c1cc(-c2ccnn2C)c2ccnc(-c3ccn[nH]3)c2n1 (stereo not given) + CN(C)c1ccc(Nc2c3ccc(NC(=O)CCN4CCCC4)cc3nc3cc(NC(=O)CCN4CCCC4)ccc23)cc1	n
COc1ncnc(C2CC2)c1-c1ncc2cnn(Cc3ccc(-c4nc(C(F)(F)F)cn4C(C)C)cc3)c2n1 + Cc1cnc(CNC(=O)c2c(=O)c3ccc(N4CCCN(C)CC4)nc3n3c2sc2ccccc23)cn1	y
COc1cccc2c1C(=O)c1c(O)c3c(c(O)c1C2=O)CC(O)(C(=O)CO)CC3OC1CC(N)C(O)C(C)O1 (stereo not given) + Cc1[nH]c2ccc(F)cc2c1-c1nc2c3cccnc3c3ncccc3c2[nH]1	y
C=CCn1c(=O)c2cnc(Nc3ccc(N4CCN(C)CC4)cc3)nc2n1-c1cccc(C(C)(C)O)n1 + CN(C)c1ccc(Nc2c3ccc(NC(=O)CCN4CCCC4)cc3nc3cc(NC(=O)CCN4CCCC4)ccc23)cc1	n

Request: Is viability, T/C of COc1cc(C2c3cc4c(cc3C(OC3OC5COC(C)OC5C(O)C3O)C3COC(=O)C23)OCO4)cc(OC)c1O (stereo not given) + CN(C)c1ccc(Nc2c3ccc(NC(=O)CCN4CCCC4)cc3nc3cc(NC(=O)CCN4CCCC4)ccc23)cc1 strictly below 80%?
Response: n

Request: # iterate: CCc1c2c(nc3ccc(O)cc13)-c1cc3c(c(=O)n1C2)COC(=O)[C@]3(O)CC + CN(C)c1ccc(Nc2c3ccc(NC(=O)CCN4CCCC4)cc3nc3cc(NC(=O)CCN4CCCC4)ccc23)cc1
Response: y

Request: # iterate: CCCS(=O)(=O)Nc1ccc(F)c(C(=O)c2c[nH]c3ncc(-c4ccc(Cl)cc4)cc23)c1F + CN(C)c1ccc(Nc2c3ccc(NC(=O)CCN4CCCC4)cc3nc3cc(NC(=O)CCN4CCCC4)ccc23)cc1
Response: n

Request: # iterate: O=C(c1cc(Cc2n[nH]c(=O)c3ccccc23)ccc1F)N1CCN(C(=O)C2CC2)CC1 + Cc1[nH]c2ccc(F)cc2c1-c1nc2c3cccnc3c3ncccc3c2[nH]1
Response: n

====

Tested on: K24384-001-R-PDC complex spheroids, viability
Assay: Anticancer human tumor K24384-001-R-PDC cell line growth inhibition [GQUAD];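 note: spheroids exposed to compounds for seven days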
Details: second compound 3.16 µM; first compound 10 µM; active compounds read low
Below, each of the compounds is paired with its reported viability, T/C value.
Your answer is read as %, so omit the unit and give the number.

Please review the following examples before continuing.
CC1COCCN1c1cc(-c2ccnn2C)c2ccnc(-c3ccn[nH]3)c2n1 (stereo not drawn) + CN(C)c1ccc(Nc2c3ccc(NC(=O)CCN4CCCC4)cc3nc3cc(NC(=O)CCN4CCCC4)ccc23)cc1	24.6
CC1COCCN1c1cc(C2(S(C)(=N)=O)CC2)nc(-c2ccnc3[nH]ccc23)n1 (stereo not drawn) + CN(C)c1ccc(Nc2c3ccc(NC(=O)CCN4CCCC4)cc3nc3cc(NC(=O)CCN4CCCC4)ccc23)cc1	23.4

Here is the next item to consider.
Request: Which measured viability, T/C value corresponds to COc1ncnc(C2CC2)c1-c1ncc2cnn(Cc3ccc(-c4nc(C(F)(F)F)cn4C(C)C)cc3)c2n1 + Cc1cnc(CNC(=O)c2c(=O)c3ccc(N4CCCN(C)CC4)nc3n3c2sc2ccccc23)cn1 ?
Response: 29

Data provenance is PubChem BioAssay AID2060483.
